src = paper PMC11600510

# experimental-system: CYP2C19 (Homo sapiens, UniProt P33261)
# Construct: purchased Thermo Fisher Scientific; host or cells: Baculosomes
# Sequence (P33261 whole entry): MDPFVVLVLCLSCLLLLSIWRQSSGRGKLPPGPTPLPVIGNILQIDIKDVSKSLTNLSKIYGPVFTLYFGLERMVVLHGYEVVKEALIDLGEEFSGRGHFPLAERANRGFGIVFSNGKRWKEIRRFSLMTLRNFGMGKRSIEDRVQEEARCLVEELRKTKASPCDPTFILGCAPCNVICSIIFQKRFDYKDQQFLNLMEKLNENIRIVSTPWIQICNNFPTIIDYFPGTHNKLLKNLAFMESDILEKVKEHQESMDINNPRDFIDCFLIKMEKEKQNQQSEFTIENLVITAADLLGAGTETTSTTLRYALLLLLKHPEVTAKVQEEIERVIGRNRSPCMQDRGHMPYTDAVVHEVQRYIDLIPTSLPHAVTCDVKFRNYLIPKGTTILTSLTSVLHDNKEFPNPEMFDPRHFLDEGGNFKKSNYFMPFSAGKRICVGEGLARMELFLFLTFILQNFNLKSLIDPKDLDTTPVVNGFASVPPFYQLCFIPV
# experiment: Isozyme-specific CYP450 inhibition
# Format: in vitro ADME
# reported-conditions: probe fluorescent substrate (not named)
# Protocol: For this, the activity of CYP1A2, CYP2A6, CYP2B6, CYP2C9, CYP2C19, CYP2D6, and CYP3A4 was assessed after the administration of CKP-25 at 1 μM to determine (a) the oxidative (CYP-mediated) metabolic stability profile in question and (b) the enzyme metabolizing isoforms responsible (the test system consists of recombinant human CYP450 and CYP450 reductase; cytochrome b5 may also be present). Herein, no concentration-dependent effects were reported. […]

# smiles-input, inhibition at 60 min, 1 µM (%)
measured = [
    ("COc1cccc2c1ncn2Cc1ccc2ccccc2c1", 20),
]

###

# experimental-system: CYP2B6 (Homo sapiens)
# Construct: purchased Thermo Fisher Scientific; host or cells: Baculosomes
# Sequence (P20813 whole entry): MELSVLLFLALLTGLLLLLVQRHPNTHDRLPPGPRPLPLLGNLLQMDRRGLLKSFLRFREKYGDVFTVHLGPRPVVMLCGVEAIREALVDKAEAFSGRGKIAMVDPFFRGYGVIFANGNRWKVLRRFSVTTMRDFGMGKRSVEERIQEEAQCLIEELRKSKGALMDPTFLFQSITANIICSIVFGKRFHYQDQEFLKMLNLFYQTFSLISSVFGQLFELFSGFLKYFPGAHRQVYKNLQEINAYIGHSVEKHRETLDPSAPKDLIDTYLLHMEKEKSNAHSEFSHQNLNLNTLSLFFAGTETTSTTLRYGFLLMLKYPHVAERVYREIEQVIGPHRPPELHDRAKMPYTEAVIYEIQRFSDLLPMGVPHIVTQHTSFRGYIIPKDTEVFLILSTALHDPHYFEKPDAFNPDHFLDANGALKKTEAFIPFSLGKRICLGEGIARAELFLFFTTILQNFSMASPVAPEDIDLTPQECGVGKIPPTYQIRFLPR
# experiment: Isozyme-specific CYP450 inhibition
# Assay type: in vitro ADME
# reported-conditions: recombinant human CYP2B6 with CYP450 reductase (Baculosomes), probe fluorescent substrate (not named)
property-name: inhibition at 60 min, 1 µM (%)

# smiles-input, experimental-system, value-observed
measured = [
    ("COc1cccc2c1ncn2Cc1ccc2ccccc2c1", "CYP2B6 (Homo sapiens)", 0),
]

###

# experimental-system: Spike RBD/ACE2 (19–615) interaction (Severe acute respiratory syndrome coronavirus 2, UniProt P0DTC2)
# Construct: S protein RBD (aa residues 319–541) of SARS-CoV-2; expressed in transfected cells; host or cells: HEK293T
# experiment: cell-based
# Format: cell-based, SARS-CoV-2
# reported-conditions: HEK-293T, 48 h, read-out: suppression of Spike RBD/ACE2 (19–615) interaction
Parameter: inhibition at 50 µM. Scope: all listed entries.

# smiles-input, inhibition at 50 µM
records = [
    ("O=[N+]([O-])c1cccc2c1ncn2Cc1ccc2ccccc2c1", "51%"),
    ("Nc1cccc2c1ncn2Cc1ccc2cccnc2c1", "30%"),
    ("c1ccc2cc(Cn3cnc4ccccc43)ccc2c1", "81%"),
    ("O=[N+]([O-])c1cccc2c1ncn2Cc1ccc2cccnc2c1", "36%"),
]

###

# Tested on: SARS-CoV-2
# experiment: microbe, parasite or virus in culture
# Assay type: cell-based
# reported-conditions: Severe acute respiratory syndrome coronavirus 2, Vero C1008, 48 h, read-out: IC50, SARS-CoV-2 CPE
pIC50: −log10 of the molar value.

# compound, pIC50
records = [
    ("COc1cccc2c1ncn2Cc1ccc2ccccc2c1 [CKP-25]", 5.46),
]

###

Parameter: melting point. Scope: all listed entries.
property-name: melting point

# smiles-input, value-observed
measured = [
    ("c1ccc(-c2ccc(Cn3cnc4ccccc43)cc2)cc1", "184 to 186 °C"),
    ("COc1cccc2c1[n+](C/C=C/c1ccc(Cl)cc1)cn2Cc1ccc2ccccc2c1.[Br-]", "228 to 229 °C"),
    ("Oc1ccc(Cn2cnc3ccccc32)cc1O", "188 to 190 °C (dec.)"),
    ("COc1cccc2c1[n+](C/C=C/c1ccc([N+](=O)[O-])cc1)cn2Cc1ccc2ccccc2c1.[Br-]", "227 to 228 °C"),
    ("COc1cccc2c1ncn2Cc1ccc(-c2ccccc2)cc1", "150 to 151 °C"),
    ("c1ccc2cc(Cn3cnc4ccccc43)ccc2c1", "139 to 140 °C"),
    ("COc1cccc2c1[n+](C/C=C/c1ccc(Cl)cc1)cn2Cc1ccc(-c2ccccc2)cc1.[Br-]", "205 to 206 °C"),
    ("O=[N+]([O-])c1ccc(/C=C/C[n+]2cn(Cc3ccc4ccccc4c3)c3ccccc32)cc1.[Br-]", "189 to 191 °C"),
]

###

# System: SARS-CoV-2 pseudovirus
# experiment: microbe, parasite or virus in culture
# Format: cell-based
# reported-conditions: Severe acute respiratory syndrome-related coronavirus, SH-SY5Y, read-out: IC50, inhibition of pseudovirus cell entry
pIC50: −log10 of the molar value.
Parameter: pIC50. Scope: all listed entries.
property-name: pIC50

# smiles-input, experimental-system, value-observed
measured = [
    ("O=c1c(Oc2ccc(-c3ccccc3)cc2)coc2cc(O)ccc12", "SARS-CoV-2 pseudovirus", 5.49),
    ("c1ccc2cc(Cn3cnc4ccccc43)ccc2c1", "SARS-CoV-2 pseudovirus", 4.31),
]

###

Parameter: melting point. Scope: all listed entries.
property-name: melting point

# smiles-input, property-name, value-observed
measured = [
    ("COc1ccc(Cn2c[n+](C/C=C/c3ccc([N+](=O)[O-])cc3)c3ccccc32)cc1OC.[Br-]", "melting point", "146 to 148 °C (dec.)"),
    ("COc1cccc2c1ncn2Cc1ccc2cccnc2c1", "melting point", "161 to 162 °C"),
    ("O=[N+]([O-])c1ccc(/C=C/C[n+]2cn(CCc3ccc4ccccc4c3)c3ccccc32)cc1.[Br-]", "melting point", "176 to 177 °C (dec.)"),
    ("Oc1cccc2c1ncn2Cc1ccc(-c2ccccc2)cc1", "melting point", "258 to 259 °C"),
    ("Clc1ccc(/C=C/C[n+]2cn(Cc3ccc4ccccc4c3)c3ccccc32)cc1.[Br-]", "melting point", "166 to 167 °C"),
    ("O=[N+]([O-])c1ccc(/C=C/C[n+]2cn(Cc3ccc(-c4ccccc4)cc3)c3ccccc32)cc1.[Br-]", "melting point", "236 to 238 °C (dec.)"),
    ("COc1cccc2c1[n+](C/C=C/c1ccc([N+](=O)[O-])cc1)cn2Cc1ccc(-c2ccccc2)cc1.[Br-]", "melting point", "203 to 204 °C"),
    ("COc1ccc(Cn2cnc3ccccc32)cc1OC", "melting point", "131 to 132 °C"),
    ("c1cnc2cc(Cn3cnc4ccccc43)ccc2c1", "melting point", "166 to 168 °C (dec.)"),
]

###

# experimental-system: Spike RBD/ACE2 (19–615) interaction (Severe acute respiratory syndrome coronavirus 2, UniProt P0DTC2)
# Construct: S protein RBD (aa residues 319–541) of SARS-CoV-2
# experiment: cell-based
pIC50: −log10 of the molar value.
property-name: pIC50

# smiles-input, property-name, value-observed
measured = [
    ("c1ccc2cc(Cn3cnc4ccccc43)ccc2c1", "pIC50", 4.26),
]

###

# experimental-system: Spike RBD/ACE2 (19–615) interaction (Severe acute respiratory syndrome coronavirus 2)
# Construct: S protein RBD (aa residues 319–541) of SARS-CoV-2; expressed in transfected cells; host or cells: HEK293T
# experiment: cell-based
# Assay type: cell-based, SARS-CoV-2
property-name: activity on Spike RBD/ACE2 (19–615) interaction (in words)

# molecule, experimental-system, value-observed
rows = [
    ("COc1cccc2c1[n+](C/C=C/c1ccc([N+](=O)[O-])cc1)cn2Cc1ccc(-c2ccccc2)cc1.[Br-] [CKP-40]", "Spike RBD/ACE2 (19–615) interaction (Severe acute respiratory syndrome coronavirus 2)", "active"),
    ("COc1cccc2c1[n+](C/C=C/c1ccc([N+](=O)[O-])cc1)cn2Cc1ccc2ccccc2c1.[Br-] [CKP-42]", "Spike RBD/ACE2 (19–615) interaction (Severe acute respiratory syndrome coronavirus 2)", "active"),
    ("O=[N+]([O-])c1cccc2c1ncn2Cc1ccc2cccnc2c1 [CKP-48]", "Spike RBD/ACE2 (19–615) interaction (Severe acute respiratory syndrome coronavirus 2)", "showed activity"),
    ("O=[N+]([O-])c1cccc2c1ncn2Cc1ccc2ccccc2c1 [CKP-20]", "Spike RBD/ACE2 (19–615) interaction (Severe acute respiratory syndrome coronavirus 2)", "showed activity"),
]

###

# experimental-system: CYP2A6 (Homo sapiens)
# Construct: purchased Thermo Fisher Scientific; host or cells: Baculosomes
# Sequence (P11509 whole entry): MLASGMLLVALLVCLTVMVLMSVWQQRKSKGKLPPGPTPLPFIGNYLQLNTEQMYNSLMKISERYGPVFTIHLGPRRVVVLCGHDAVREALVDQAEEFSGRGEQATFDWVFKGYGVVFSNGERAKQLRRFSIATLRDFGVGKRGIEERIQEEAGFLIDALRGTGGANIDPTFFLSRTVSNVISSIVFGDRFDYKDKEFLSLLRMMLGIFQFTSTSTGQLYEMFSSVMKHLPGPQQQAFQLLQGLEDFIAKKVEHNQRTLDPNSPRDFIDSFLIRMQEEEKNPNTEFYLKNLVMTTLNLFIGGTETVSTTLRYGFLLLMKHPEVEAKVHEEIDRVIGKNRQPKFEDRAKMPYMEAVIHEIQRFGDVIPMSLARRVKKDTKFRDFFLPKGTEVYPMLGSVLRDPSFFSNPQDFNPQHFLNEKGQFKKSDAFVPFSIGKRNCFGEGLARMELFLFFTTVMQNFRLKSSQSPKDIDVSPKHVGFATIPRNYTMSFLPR
# experiment: Isozyme-specific CYP450 inhibition
# Type: in vitro ADME
# reported-conditions: recombinant human CYP2A6 with CYP450 reductase (Baculosomes), probe fluorescent substrate (not named)
property-name: inhibition at 60 min, 1 µM

# smiles-input, property-name, value-observed
measured = [
    ("COc1cccc2c1ncn2Cc1ccc2ccccc2c1", "inhibition at 60 min, 1 µM", "6%"),
]
